- Tested on: P. falciparum female gametocytes
- protocol-summary: P. falciparum Dual Gamete Formation Assay (PfDGFA), female readout (Pfs25-positive female gametes)
- Type: cell-based, Plasmodium falciparum NF54
- condition-context: 2µM, 24h preincubation with gametocytes prior to induction of gametogenesis; average of replicates
Assign a class from recorded Average inhibition female (%); defined classes: lo (below 10%), med (10% to below 30%), hi (30% or more)

*Q* Could you tell me which band COc1cc(Br)c(S(=O)(=O)n2cc(CN3CCC(N)CC3)c3cc(Cl)ccc32)cc1OC.O=C(O)C(F)(F)F belongs to?
*A* med

*Q* Category lookup for the compound CN(C)CCNCc1ccc(-c2ccc3c(Nc4ccc(Cl)cc4F)ccnc3c2)o1
*A* hi

*Q* Using the reported Average inhibition female (%), which band applies to CCc1ccccc1-c1csc(C(=O)NCC2CCN(Cc3ccc(C(C)(C)C)cc3)C2)c1.O=C(O)C(F)(F)F (stereo not shown) ?
*A* hi

*Q* Category of Clc1ccc(CNCCCCCCNCc2ccc(Cl)cc2)cc1.O=C(O)c1ccc2ccccc2c1O , please.
*A* lo

*Q* For this compound, which bin applies? Cl.c1ccc2c(C3CCN(CCCCOc4ccc5c(c4)CCN(CC4CC4)CC5)CC3)c[nH]c2c1
*A* med

*Q* Please indicate the class for COc1ccc2c(c1)nc(CNC(=N)N)n2Cc1ccc(Cl)cc1.Cl based on its Average inhibition female (%).
*A* lo

*Q* Hey, which category is CC1(CCCCN2CCC(c3c[nH]c4cnccc34)CC2)C(=O)Nc2cccc(Cl)c21 (stereo not shown) in, do you know?
*A* med

*Q* State the class of the compound shown: CN(C)S(=O)(=O)n1ccc2c3c(N)nc(N)nc3ccc21
*A* med

*Q* For the record COc1ccc(Cc2cnc3nc(N)nc(N)c3c2C)cc1OC.O=S(=O)(O)CCO , report the class its Average inhibition female (%) corresponds to.
*A* lo

*Q* Tag the class for Cl.c1ccc2c(NCCCCCCCCCNc3ccnc4ccccc34)ccnc2c1
*A* hi

*Q* Lab log: CC(C)CC(=O)N(Cc1ccc(-c2ccc(CNC3Cc4ccccc4C3)cc2)cc1)C1CCNCC1.O=C(O)C(F)(F)F — assign Average inhibition female (%) category
*A* med

*Q* Textbook exercise: identify the category of the compound given here, Cc1cccc2nc(-c3ccc(-c4ccc(CN5CCN(C6CCN(C)CC6)CC5)cc4)s3)[nH]c12.O=C(O)C(F)(F)F , according to its measured value.
*A* hi

*Q* Tag the class for CN1CCN(CCCCNc2c3ccccc3nc3ccccc23)CC1
*A* med

*Q* For CN(C)CCCNCc1ccc(-c2ccc(C(F)(F)F)cc2)cc1 , which Average inhibition female (%) bin applies?
*A* med

* * *

- Test system: P. falciparum female gametocytes
- protocol-summary: P. falciparum Dual Gamete Formation Assay (PfDGFA), female readout (Pfs25-positive female gametes)
- Assay type: cell-based, Plasmodium falciparum NF54
- condition-context: 2µM, 24h preincubation with gametocytes prior to induction of gametogenesis; average of replicates
attribute-measured: Average inhibition female (%)
Enter your answer as a number in %; do not include the unit.

*Q* Consider the molecule shown here: CCCCCOc1ccc(N2C(N)=NC(N)=NC2(C)C)cc1.Cl What is its recorded Average inhibition female (%)?
*A* 10.0

*Q* So what does the record say about Average inhibition female (%) for CC[C@H]1CN2CCc3cc(OC)c(OC)cc3[C@@H]2C[C@@H]1C[C@H]1NCCc2c1cc(OC)c(O)c2Cl ?
*A* 66.5

*Q* Look up Average inhibition female (%) for this molecule: COc1ccc(-c2csc3nc(C)nc(Cl)c23)cc1OC
*A* 3.7

*Q* What does the data say about its Average inhibition female (%)? Entry: CC(C)c1cc2c(ccc3nc(N)nc(N)c32)[nH]1
*A* 11.1

*Q* Recorded Average inhibition female (%) of O=C(/C=C/c1c(Cl)cccc1Cl)NC1CCC(CN2CCC(c3c[nH]c4ccncc34)CC2)CC1 (centres unmarked) , please.
*A* 10.7

*Q* So what's the measured Average inhibition female (%) for this one? CCc1c(CCNCCCCCCNCCc2ccc3c(c2C)OCO3)ccc2c1OCO2.Cl
*A* 43.6

*Q* Could you tell me which Average inhibition female (%) is on file for O=C(O)C(F)(F)F.c1cc(CNCCN2CCNCC2)cc(-c2cccc(-c3nc4ccccc4[nH]3)c2)c1 ?
*A* 17.2

*Q* Given the entry CN1CCCC1CCNCc1cccc(-c2cnc(N3CCCC(C)(C)C3)nc2)c1 (centres unmarked) , report its measured Average inhibition female (%).
*A* 21.7

*Q* What measured Average inhibition female (%) goes with COc1ccccc1N1CCN(CCCCNC(=O)c2ccc(NC(=O)c3ccc(OC(F)(F)F)cc3)cc2)CC1.Cl ?
*A* 5.4

*Q* Given the molecule COc1cc2ccccc2c(OC)c1CCNCCCCNCCc1c(OC)cc2ccccc2c1OC.CS(=O)(=O)O , what is its reported Average inhibition female (%)?
*A* 13.3

*Q* What value of Average inhibition female (%) has been recorded for this entry: COc1ccc(O)cc1Cc1cnc2nc(N)nc(N)c2c1C
*A* 6.7

*Q* What does the data say about its Average inhibition female (%)? Entry: NS(=O)(=O)c1cccc(Nc2nc(N[C@@H]3CCNC3)nc3cc[nH]c(=O)c23)c1.O=C(O)C(F)(F)F
*A* 3.8

*Q* So what's the measured Average inhibition female (%) for this one? CN1CCN(Cc2nc(-c3ccc4c(Nc5ccc(F)c(O)c5)ccnc4c3)cs2)CC1
*A* 3.7

*Q* // returns reported Average inhibition female (%) for input CCc1c(CCNCCCC(C)CCNCCc2ccc(OC)c(OC)c2CC)ccc(OC)c1OC.Cl (centres unmarked)
*A* 11.1

*Q* Recorded Average inhibition female (%) for CCCc1cc(Cc2cnc(N)nc2N)cc(CCC)c1OCCCCC(=O)O , please?
*A* 8.1

*Q* Record request: Average inhibition female (%) value, item CCOc1ccccc1CCNC(C)Cc1ccc(C(=O)Nc2ccc(CC(C)NCCc3cccc(Cl)c3)cc2)cc1 (centres unmarked)
*A* 24.4

*Q* Given the molecule NC(CC1CC(=O)N1CC(=O)O)C(=O)O (centres unmarked) , what is its reported Average inhibition female (%)?
*A* 6.8

*Q* Requested read-out: Average inhibition female (%). Entry: O=C(C1CC1c1ccccc1)N(Cc1ccc(-c2ccc(CNCCc3ccccc3)cc2)cc1)C1CCNCC1.O=C(O)C(F)(F)F (centres unmarked)
*A* 24.9

*Q* I am curious: what Average inhibition female (%) value has been reported for CN(C)CCC1CCN(CCS(=O)(=O)c2cccc(Nc3ncc(-c4cccc(F)c4)cn3)c2)CC1 ?
*A* 19.0

*Q* What value of Average inhibition female (%) has been reported for the following molecule? Nc1nc(N)c2c(ccc3nn(C4CCCC4)cc32)n1
*A* 4.4

*Q* Can you share its Average inhibition female (%)? I mean this molecule: COc1cccc(-c2csc(C(=O)NCC3CCN(Cc4ccc(C(C)(C)C)cc4)C3)c2)c1.O=C(O)C(F)(F)F (centres unmarked)
*A* 52.6

*Q* Consider the molecule shown here: CCCCCc1ccc(N2C(N)=NC(N)=NC2(C)C)cc1.Cl What is its recorded Average inhibition female (%)?
*A* 8.1

*Q* Please give the measured Average inhibition female (%) for this molecule: NCCCNc1nccc(N2CCc3ncnc(Nc4ccc(OCc5cccc(F)c5)c(Cl)c4)c3C2)n1
*A* 13.8
